Assay: NCI Yeast Anticancer Drug Screen. Data for the rad50 strain (AID 155);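 also: 0% = growth of vehicle-only cultures of the same strain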
Conditions: S. cerevisiae rad50 strain growth inhibition; at 50.0 µM; stronger effect = higher value
The panel holds about 79,000 compounds, 15% with a hit somewhere; the sample as a whole holds those more often.
growth inhibition of -10% or higher: true. Under -10%: false.

[
  {
    "Compound": "CCOc1cc(/C=N/NC(=O)c2ccccc2NC(=O)c2ccccc2)ccc1OC",
    "Assigned label": "false"
  },
  {
    "Compound": "NNC(=O)CC(N)C(N)=O (stereo unspecified)",
    "Assigned label": "true"
  },
  {
    "Compound": "CCCCCCN1CCc2c(C)c(C#N)c3nc4ccccc4n3c21",
    "Assigned label": "true"
  },
  {
    "Compound": "N/C(=N\\Cl)C(Cl)(Cl)Cl",
    "Assigned label": "false"
  },
  {
    "Compound": "S=C(NCc1ccncc1)Nc1ccccc1Cl",
    "Assigned label": "true"
  },
  {
    "Compound": "CCCCC1C2C(S(=O)(=O)c3ccccc3)=NOC2C=CN1C(C)=O (stereo unspecified)",
    "Assigned label": "true"
  },
  {
    "Compound": "Clc1cccc(-c2nnc(-c3nn(-c4ccccc4)c4nc5ccccc5nc34)o2)c1",
    "Assigned label": "false"
  },
  {
    "Compound": "C/C(=N/Nc1ccc([N+](=O)[O-])cc1[N+](=O)[O-])c1ccc(Sc2ccc(/C(C)=N/Nc3ccc([N+](=O)[O-])cc3[N+](=O)[O-])cc2)cc1",
    "Assigned label": "false"
  },
  {
    "Compound": "COc1ccc(NC(=O)CC(=O)N2N=C(N(CCC#N)c3ccccc3Cl)CC2c2ccccc2)cc1 (stereo unspecified)",
    "Assigned label": "false"
  },
  {
    "Compound": "CC1(C)C=C(C(Cl)c2ccccc2)C(=O)c2ccccc21 (stereo unspecified)",
    "Assigned label": "true"
  },
  {
    "Compound": "CCC(O)C(CC)[N+](=O)[O-] (stereo unspecified)",
    "Assigned label": "true"
  }
]

---

Experiment: NCI Yeast Anticancer Drug Screen. Data for the mlh1 rad18 strain (AID 175)
Conditions: S. cerevisiae mlh1 rad18 strain growth inhibition; at 50.0 µM; stronger effect = higher value
About 79,000 compounds went through this panel and 15% of them were active in at least one assay; those are over-represented in the sample as a whole.
growth inhibition of 10% or higher: true (1). Under 10%: false (0).

[
  {
    "Compound": "Cc1ccc(S(=O)(=O)NC(CC(C)C)C(=O)O)cc1 (configuration not stated)",
    "Assigned label": "false (0)"
  },
  {
    "Compound": "Cc1cc(C)n(-c2ccc([N+](=O)[O-])cn2)n1",
    "Assigned label": "false (0)"
  },
  {
    "Compound": "CCCCCSc1nc2c([nH]1)c(=O)n(C)c(=S)n2C",
    "Assigned label": "false (0)"
  },
  {
    "Compound": "Brc1ncnc2c1ncn2C1CCCO1 (configuration not stated)",
    "Assigned label": "false (0)"
  },
  {
    "Compound": "Cc1ccc(S(=O)(=O)Nc2nnc(CC(C)C)s2)cc1",
    "Assigned label": "true (1)"
  },
  {
    "Compound": "C=CC(=O)OCCCCCCCCCC",
    "Assigned label": "true (1)"
  },
  {
    "Compound": "CCOC(=O)/C(=C/c1cc(OC)ccc1OC)P(=O)(OCC)OCC",
    "Assigned label": "false (0)"
  },
  {
    "Compound": "NC(=O)CCn1ccc2ccccc21",
    "Assigned label": "false (0)"
  },
  {
    "Compound": "CCN(CC)CCCCCOC(=O)c1ccccc1",
    "Assigned label": "true (1)"
  },
  {
    "Compound": "CCCCC1NNC(CCCC)NN1 (configuration not stated)",
    "Assigned label": "false (0)"
  },
  {
    "Compound": "COc1c(O)c2c(=O)cc3c4c5c(cc(=O)c6c(O)c(OC)c(CC(C)O)c(c(c1CC(C)O)c24)c65)OCO3 (configuration not stated)",
    "Assigned label": "true (1)"
  },
  {
    "Compound": "Cc1cc(C)nc(NS(=O)(=O)c2ccc(Nc3c4ccccc4nc4c(C(=O)Nc5ccc(S(=O)(=O)Nc6cc(C)on6)cc5)cccc34)cc2)n1",
    "Assigned label": "true (1)"
  },
  {
    "Compound": "CC1/C(=N/O)CC(c2ccccc2)N(N=O)C1c1ccccc1 (configuration not stated)",
    "Assigned label": "true (1)"
  },
  {
    "Compound": "COc1c2occc2c(Br)c2ccc(=O)oc12",
    "Assigned label": "false (0)"
  },
  {
    "Compound": "CC(=O)c1cccc(NCn2nnc3ccccc32)c1",
    "Assigned label": "false (0)"
  },
  {
    "Compound": "COc1ccc2c(CCn3ccccc3=O)cccc2c1",
    "Assigned label": "false (0)"
  },
  {
    "Compound": "CS(=O)CC(Nc1ccccc1)c1ccccc1 (configuration not stated)",
    "Assigned label": "false (0)"
  },
  {
    "Compound": "CCN1C(=O)NC(C)(c2ccccc2)C1=O (configuration not stated)",
    "Assigned label": "false (0)"
  },
  {
    "Compound": "NC(=O)Cc1c(F)c(F)c(F)c(F)c1F",
    "Assigned label": "false (0)"
  },
  {
    "Compound": "CCCCOC(=O)C1C(c2ccc(Cl)cc2)NC(c2ccc(Cl)cc2)C(C(=O)OCCCC)S1(=O)=O (configuration not stated)",
    "Assigned label": "false (0)"
  },
  {
    "Compound": "O=[N+]([O-])c1cccc(N=Cc2ccc(Cl)cc2)c1",
    "Assigned label": "false (0)"
  },
  {
    "Compound": "O=c1[nH]c2cc(Cl)ccc2nc1/C=C(\\O)c1ccc([N+](=O)[O-])cc1",
    "Assigned label": "true (1)"
  },
  {
    "Compound": "N#Cc1c(-c2ccc(Cl)cc2)cn2c1[nH]c(=O)c1cc(Br)ccc12",
    "Assigned label": "true (1)"
  },
  {
    "Compound": "Cc1cc2nc(/N=C/c3nc(O)c(C)[nH]3)[nH]c2cc1C",
    "Assigned label": "true (1)"
  },
  {
    "Compound": "CC(=O)N(C)C1=C(Sc2ccc([N+](=O)[O-])cc2)C(=O)c2ccccc2C1=O",
    "Assigned label": "true (1)"
  },
  {
    "Compound": "CCO[C@H]1OC(=O)[C@@H]2C(c3ccc([N+](=O)[O-])cc3)=NO[C@H]12",
    "Assigned label": "false (0)"
  },
  {
    "Compound": "O=C(/C=C/c1ccccc1)Nc1cc(Cl)ccc1Cl",
    "Assigned label": "true (1)"
  },
  {
    "Compound": "O=C(CSc1nnc(Cc2ccccc2)o1)Nc1ccc(Cl)cc1Cl",
    "Assigned label": "false (0)"
  },
  {
    "Compound": "COc1ccc(/C=C/C(=O)C(C)(CN(C)C)CN(C)C)cc1",
    "Assigned label": "true (1)"
  },
  {
    "Compound": "O=C1CC[C@@H](NC(=O)Cc2ccccc2)C(=O)N1",
    "Assigned label": "false (0)"
  },
  {
    "Compound": "CSC(=S)/C(=C/Nc1ccccn1)c1ccccc1",
    "Assigned label": "true (1)"
  },
  {
    "Compound": "Cc1cccc(-n2c(N)c(-c3nc4ccccc4[nH]3)sc2=S)c1",
    "Assigned label": "false (0)"
  },
  {
    "Compound": "CC(=O)C(C(C)=O)C(C(C)=O)C(C)=O.[Cu]",
    "Assigned label": "false (0)"
  },
  {
    "Compound": "c1ccc2c(c1)CCC/C2=N\\OCC1CO1 (configuration not stated)",
    "Assigned label": "false (0)"
  },
  {
    "Compound": "Nc1ccc(S(=O)(=O)NCCS(=O)(=O)O)cc1",
    "Assigned label": "false (0)"
  },
  {
    "Compound": "Cc1ccccc1NS(=O)(=O)c1c(N)ncn1C",
    "Assigned label": "false (0)"
  },
  {
    "Compound": "NC(=O)/C=C1\\NC(=O)CS1",
    "Assigned label": "false (0)"
  },
  {
    "Compound": "COc1ccc([C@H]2CC3C(=O)N(c4ccc(OC)cc4)C(=O)C3c3[nH]c4ccccc4c32)cc1 (some centres not stated)",
    "Assigned label": "false (0)"
  },
  {
    "Compound": "CN(C)c1nnnn1-c1c(N)n(C)c(=O)n(C)c1=O",
    "Assigned label": "false (0)"
  },
  {
    "Compound": "CCOC(=O)CCCNc1cc(OC)cc2cccnc12",
    "Assigned label": "false (0)"
  },
  {
    "Compound": "CC(=O)OC1OC(COC(c2ccccc2)(c2ccccc2)c2ccccc2)C(OCc2ccccc2)C(OCc2ccccc2)C1OC(C)=O (configuration not stated)",
    "Assigned label": "false (0)"
  },
  {
    "Compound": "COc1cc(OC)c2cc(C(=O)c3cccc4ccccc34)c(=O)oc2c1",
    "Assigned label": "true (1)"
  },
  {
    "Compound": "COc1cc(C)c(C2NC(=O)c3ccccc3N2)cc1C (configuration not stated)",
    "Assigned label": "false (0)"
  },
  {
    "Compound": "Cc1cc(Cc2cc(Cc3cc(C)cc(C(C)(C)C)c3O)c(C)cc2C)c(O)c(C(C)(C)C)c1",
    "Assigned label": "true (1)"
  },
  {
    "Compound": "CCO/N=C(\\N)c1ccccc1",
    "Assigned label": "false (0)"
  },
  {
    "Compound": "COC(=O)c1c2c(cc3nc4ccccc4nc13)OCO2",
    "Assigned label": "true (1)"
  },
  {
    "Compound": "CN1C(C(=O)Nc2nccs2)=C(O)c2ccccc2S1(=O)=O",
    "Assigned label": "true (1)"
  }
]
